# experimentalProtocol: Clearance in mouse at 2 mg/kg, iv administered as infusion or 5 mg/kg, po via gavage measured up to 24 hrs by LC-MS analysis
# Assay type: ADME, organism-based
# statedConditions: in vivo
parameterMeasured: clearance (mL/min/kg)

[[record]]
smilesdata = "CC(C)Nc1cc(Nc2nc3ccnn3cc2F)ncc1C(=O)NC[C@@H](F)C(C)(C)O"
parametermeasured = "clearance"
recordedmeasurement = 15


----------
# experimentalProtocol: AUC in mouse at 2 mg/kg, iv administered as infusion measured up to 24 hrs by LC-MS analysis
# Format: ADME, organism-based
# Set-up: time < 24 hr, dose 2 mg/kg, route intravenous
# statedConditions: in vivo
parameterMeasured: AUC at 24 h

[[record]]
smilesdata = "CC(C)Nc1cc(Nc2ccc3nonc3c2)ncc1C(=O)NC[C@@H](F)C(C)(C)O"
recordedmeasurement = "4.7 µM·h"

[[record]]
smilesdata = "CC(C)Nc1cc(Nc2ccn3nccc3n2)ncc1C(=O)NC[C@@H](F)C(C)(C)O"
recordedmeasurement = "2.4 µM·h"

[[record]]
smilesdata = "CC(C)Nc1cc(Nc2nc3ccnn3cc2F)ncc1C(=O)NC[C@@H](F)C(C)(C)O"
recordedmeasurement = "5 µM·h"

[[record]]
smilesdata = "CC(C)(O)[C@H](F)CNC(=O)c1cnc(Nc2ccc3ncsc3c2)cc1NC1CC1"
recordedmeasurement = "1.6 µM·h"


----------
In this section we review reported pIC50 values for a set of compounds.
# targetOrTestSystem: Interleukin-1 receptor-associated kinase 4 (Homo sapiens, UniProt Q9NWZ3)
# Sequence (Q9NWZ3 whole entry): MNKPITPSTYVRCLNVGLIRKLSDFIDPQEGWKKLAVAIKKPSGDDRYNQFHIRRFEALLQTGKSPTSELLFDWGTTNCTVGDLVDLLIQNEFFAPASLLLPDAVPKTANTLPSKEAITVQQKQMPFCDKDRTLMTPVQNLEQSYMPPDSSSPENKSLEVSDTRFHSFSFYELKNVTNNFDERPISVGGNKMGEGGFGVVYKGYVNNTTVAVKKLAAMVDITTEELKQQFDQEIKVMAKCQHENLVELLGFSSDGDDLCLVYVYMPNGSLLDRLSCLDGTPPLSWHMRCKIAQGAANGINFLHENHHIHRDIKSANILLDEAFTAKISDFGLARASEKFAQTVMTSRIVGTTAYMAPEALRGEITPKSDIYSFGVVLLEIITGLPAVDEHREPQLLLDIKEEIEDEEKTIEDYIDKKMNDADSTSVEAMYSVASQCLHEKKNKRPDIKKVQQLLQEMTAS
# experimentalProtocol: Inhibition of IRAK4 in human PBMC assessed as inhibition of LTA-induced IL-6 production preincubated for 30 mins followed by LTA-stimulation and measured after 5 hrs by ELISA
# Format: cell-based
pIC50: −log10 of the molar value.
parameterMeasured: pIC50

[[record]]
smilesdata = "CNC(=O)c1cnc(Nc2ccc3ncsc3c2)cc1NC(C)C"
parametermeasured = "pIC50"
recordedmeasurement = 5.35

[[record]]
smilesdata = "CC(C)Nc1cc(Nc2ccc3ncsc3c2)ncc1C(=O)NCCc1ccc(S(N)(=O)=O)cc1"
parametermeasured = "pIC50"
recordedmeasurement = 5.92

[[record]]
smilesdata = "CC(C)Nc1cc(Nc2ccc3ncsc3c2)ncc1C(=O)NCC(F)(F)C(C)(C)O"
parametermeasured = "pIC50"
recordedmeasurement = 6.24

[[record]]
smilesdata = "CC(C)Nc1cc(Nc2nc3ccnn3cc2F)ncc1C(=O)NC[C@@H](F)C(C)(C)O"
parametermeasured = "pIC50"
recordedmeasurement = 6.43

[[record]]
smilesdata = "CC(C)Nc1cc(Nc2ccn3nccc3c2)ncc1C(=O)NC[C@@H](F)C(C)(C)O"
parametermeasured = "pIC50"
recordedmeasurement = 6.39

[[record]]
smilesdata = "CC(C)Nc1cc(Nc2ccc3ncsc3c2)ncc1C(=O)NCCC(C)(C)O"
parametermeasured = "pIC50"
recordedmeasurement = 6.54

[[record]]
smilesdata = "CC(C)Nc1cc(Nc2ccc3ncsc3c2)ncc1C(=O)NCCCO"
parametermeasured = "pIC50"
recordedmeasurement = 5.16

[[record]]
smilesdata = "CC(C)(O)[C@@H](F)CNC(=O)c1cnc(Nc2ccc3ncsc3c2)cc1NC1CC1"
parametermeasured = "pIC50"
recordedmeasurement = 6.14

[[record]]
smilesdata = "Cc1nc2ccc(Nc3cc(NC(C)C)c(C(=O)NC[C@@H](F)C(C)(C)O)cn3)cc2s1"
parametermeasured = "pIC50"
recordedmeasurement = 5.77

[[record]]
smilesdata = "CC(C)(O)CCNC(=O)c1cnc(Nc2ccc3ncsc3c2)cc1NC1CC1"
parametermeasured = "pIC50"
recordedmeasurement = 6.54

[[record]]
smilesdata = "CC(C)Nc1cc(Nc2ccc3nsnc3c2)ncc1C(=O)NC[C@@H](F)C(C)(C)O"
parametermeasured = "pIC50"
recordedmeasurement = 6.49

[[record]]
smilesdata = "CC(C)Nc1cc(Nc2ccn3nccc3n2)ncc1C(=O)NC[C@@H](F)C(C)(C)O"
parametermeasured = "pIC50"
recordedmeasurement = 7.00

[[record]]
smilesdata = "CC(C)Nc1cc(Nc2ccc3ncsc3c2)ncc1C(=O)NC[C@@H](F)C(C)(C)O"
parametermeasured = "pIC50"
recordedmeasurement = 6.32

[[record]]
smilesdata = "CC(C)Nc1cc(Nc2ccc3nonc3c2)ncc1C(=O)NC[C@@H](F)C(C)(C)O"
parametermeasured = "pIC50"
recordedmeasurement = 6.19

[[record]]
smilesdata = "CC(C)Nc1cc(Nc2ccc3ncsc3c2)ncc1C(=O)NC[C@@H](C)C(C)(C)O"
parametermeasured = "pIC50"
recordedmeasurement = 5.54

[[record]]
smilesdata = "CC(C)(O)[C@H](F)CNC(=O)c1cnc(Nc2ccc3ncsc3c2)cc1NC1CC1"
parametermeasured = "pIC50"
recordedmeasurement = 6.64

